assay: chemical genetic growth profiling, strain panel (AID 1159580);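 also: tested at 20 µM; growth read once vehicle control cultures reached saturation at 30 °C; 1 = growth at the plate median or of vehicle wells; lower values mean less growth of the strain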; settings: S. cerevisiae deletion strains, growth OD, locus YDL101C, strain DUN1
Among all 5,500 compounds or so, about 2,000 (36%) were called active. About 18% were inconclusive and are not listed. Rule as the data show it: active = normalized growth mostly below about 0.91 (no sharp cut-off); inconclusive = no clear call, values can overlap the other calls; inactive = mostly above about 0.92. Some of the results follow.
Outcome codes: active, inactive

compound smiles	class name
CC(=O)/C(=C\N(C)C)Sc1ccc(Cl)cc1	active
COC(=O)c1ccccc1-n1cccc1C(=O)OC	inactive
CC(C)=CCOc1cc2oc(=O)ccc2cc1O	inactive
CC1=C2[C@](C)(C=CC1=O)C[C@H](O)[C@H]1[C@H](C)C(=O)O[C@]21C	inactive

* * *

test: chemical genetic growth profiling, strain panel (AID 1159580);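 also: tested at 20 µM; growth read once vehicle control cultures reached saturation at 30 °C; 1 = growth at the plate median or of vehicle wells; lower values mean less growth of the strain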; settings: S. cerevisiae deletion strains, growth OD, locus YDR318W, strain mcm21
Hit rate of the full screen: of about 5,500 compounds, about 2,000 (36%) were called active. Another 18% or so got no clear call; they are omitted. Cut-off read from the data, not from the text of the source: active = normalized growth mostly below about 0.91 (no sharp cut-off); inconclusive = no clear call, values can overlap the other calls; inactive = mostly above about 0.92. This is one part of the list.
Outcome codes: YES (active), NO (inactive)

molecule	class name
COc1ccc2c(c1)[nH]c1c(C)nccc12	NO
C[C@]12C=CC(=O)C=C1CCC1C2C(=O)C[C@@]2(C)C1CC[C@]2(O)C(=O)CO (some centres not stated)	NO
COc1cc2ccc(=O)oc2c(O)c1O	NO
CC(C)(O)CC[C@@H](O)[C@](C)(O)C1CC[C@@]2(O)C3=CC(=O)C4C[C@@H](O)[C@@H](O)C[C@]4(C)C3CC[C@]12C (some centres not stated)	NO
COc1ccc2c(=O)c(-c3cc4c(cc3OC)OCO4)coc2c1	NO
Cn1c([N+](=O)[O-])cnc1COC(N)=O	NO
COc1cc(OC)c2c(c1Cl)OC1(C2=O)C(O)=CC(=O)CC1C (configuration not stated)	NO
COC(=O)C[C@H]1C(C)(C)C(OC(C)=O)[C@]2(O)C=C3C4CC(=O)O[C@@H](c5ccoc5)[C@]4(C)CCC3[C@@]1(C)C2=O (some centres not stated)	NO
c1ccc2c(c1)[nH]c1cnccc12	NO
CCNc1nc(Cl)nc(NC(C)C)n1	NO
CCCCC/C=C\C/C=C\C/C=C\C/C=C\CCCC(=O)O	NO
CC(C)=CCOc1cc2oc(=O)ccc2cc1O	YES
Cn1c(=O)[nH]c(=O)c2[nH]cnc21	NO
CC(C(=O)O)c1ccc(N2Cc3ccccc3C2=O)cc1 (configuration not stated)	NO
CC1=C(C(=O)O)N2C(=O)[C@@H](NC(=O)[C@H](N)C3=CCC=CC3)C2SC1 (some centres not stated)	NO
CC(C)=CCOc1c2occc2cc2ccc(=O)oc12	YES
C[C@]12C=CC(=O)C=C1CCC1C2CC[C@]2(C)C(=O)CCC12 (some centres not stated)	NO

* * *

assay: chemical genetic growth profiling, strain panel (AID 1159580);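 also: tested at 20 µM; growth read once vehicle control cultures reached saturation at 30 °C; 1 = growth at the plate median or of vehicle wells; lower values mean less growth of the strain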; conditions: S. cerevisiae deletion strains, growth OD, locus YBL105C, strain PKC1, hits give low values
Hit rate of the full screen: of about 5,500 compounds, about 2,000 (36%) were called active. Inconclusive results (about 18%) are left out. This is one part of the list.
Each entry below carries its recorded normalized growth.
readout type: normalized growth

compound	reported
N#Cc1c(N)sc2c1CCc1ccccc1-2	0.897
COc1cccc(C(=O)C(C#N)=C(SC)SC)c1	0.88
CCCCc1ccc(N=CNO)c(C)c1	1.01
COC(=O)c1ccc(Oc2c(C(F)(F)F)oc3cc(O)ccc3c2=O)cc1	0.976
CC(=O)Oc1ccc2c(=O)c(Oc3ccc(Cl)cc3)c(C)oc2c1	0.964
O=S(=O)(Nc1cc(-c2cccs2)nn1-c1ccc(I)cc1)c1cccc(F)c1	0.966
N/C(=N/OC(=O)c1ccccc1Cl)c1cccc(CS(=O)(=O)c2ccc(Cl)cc2)c1	0.975
CCOC(=O)C(NC(C)=O)(Nc1ccc(F)c(Cl)c1)C(F)(F)F (stereo not given)	0.995
N#C/C(=N/Nc1ccc(Cl)cc1)C(=O)C1CC1	0.86
O=C(c1ccc(Cl)cc1)N1CCN(c2ccc(C(F)(F)F)cn2)CC1	0.992
CCOC(=O)C(O)(c1ccc(NC(=O)Nc2ccc(Cl)cc2)cc1)C(F)(F)F (stereo not given)	0.985
CC(NC(=S)Nc1ccc(Oc2ccc(Cl)cc2)cc1)c1ccccc1 (stereo not given)	0.965
FC(F)(F)c1ccc(NC(=S)Nc2ccc(C(F)(F)F)cc2Cl)c(Cl)c1	0.969
Nc1ccccc1C(=O)N/N=C\c1cc(Cl)cc(Cl)c1O	0.958
Fc1ccc(Nc2nc(-c3ccc(F)c(F)c3)cs2)c(F)c1	0.104
N/C(=N/OC(=O)c1ccccc1Cl)c1ccc2nonc2c1	0.963
COc1ccc(-c2cc(NS(=O)(=O)c3cccc(F)c3)n(-c3ccc(Cl)c(Cl)c3)n2)cc1	0.971
O=C(OCc1ccc(Oc2ccc(Cl)cc2Cl)c([N+](=O)[O-])c1)c1ccc([N+](=O)[O-])o1	0.975
Cc1nc(C(F)(F)F)ccc1-c1nnc(SC(=O)c2ccc(Cl)cc2)o1	0.883
Nc1ccc(N2CCN(c3ccc(C(F)(F)F)cn3)CC2)nc1	0.984
